# System: LOXIMVI (Melanoma);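 note: after 72 h of two-drug dosing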
# test.details: Bliss excess, mean over the matrix (fraction); higher = more synergy
test.readout: Bliss excess

Q. Param item = COc1nnc2ccc(N3CCC(c4ccc(OCCN5CCN(C)C(=O)[C@H]5C)cc4)CC3)nn12 [AZD5153] + C=CCn1c(=O)c2cnc(Nc3ccc(N4CCN(C)CC4)cc3)nc2n1-c1cccc(C(C)(C)O)n1 [AZD1775] (first compound max 1 µM, partner max 1 µM) ; retrieve measured Bliss excess.
A. -0.0494

Q. Note, next up: Cc1c2c(nn1C)CSCc1cc(n(C)n1)CSc1cc(c3ccccc3c1)OCCCc1c(C(=O)O)n(C)c3c-2c(Cl)ccc13 [AZD5991] + Cn1cnc2c(F)c(Nc3ccc(Br)cc3Cl)c(C(=O)NOCCO)cc21 [Selumetinib] (first compound max 1 µM, 7x7, partner max 3 µM)
A. 0.0256

Q. Record: CC1(C)CCC(CN2CCN(c3ccc(C(=O)NS(=O)(=O)c4ccc(NCC5CCOCC5)c([N+](=O)[O-])c4)c(Oc4cnc5[nH]ccc5c4)c3)CC2)=C(c2ccc(Cl)cc2)C1 [Venetoclax] + Cn1cnc2c(F)c(Nc3ccc(Br)cc3Cl)c(C(=O)NOCCO)cc21 [Selumetinib] (first compound max 1 µM, 7x7, partner max 3 µM)
A. -0.0228

Q. Lookup COc1cccc(OCCCN)c1-c1cc(Nc2cnc(C#N)cn2)n[nH]1 [Prexasertib] + CN(C)CCCOc1ccc(-c2ccc3ncc4c(c3c2)n(C2CCOCC2)c(=O)n4C)cn1 [AZD0156] (first compound max 1 µM, 7x7, partner max 1 µM)
A. 0.0398

Q. Now consider Cc1c2c(nn1C)CSCc1cc(n(C)n1)CSc1cc(c3ccccc3c1)OCCCc1c(C(=O)O)n(C)c3c-2c(Cl)ccc13 [AZD5991] + C1CN(CCC1(C(=O)N[C@@H](CCO)C2=CC=C(C=C2)Cl)N)C3=NC=NC4=C3C=CN4 [Capivasertib] (first compound max 1 µM, 7x7, partner max 3 µM) .
A. -0.0067

Q. Okay, and CN(C)CCCOc1ccc(-c2ccc3ncc4c(c3c2)n(C2CCOCC2)c(=O)n4C)cn1 [AZD0156] + O=C(c1cc(Cc2n[nH]c(=O)c3ccccc23)ccc1F)N1CCN(C(=O)C2CC2)CC1 [Olaparib] (first compound max 3 µM, partner max 3 µM) ?
A. 0.0317

Q. Next molecule up: Cc1cc2ncnn2cc1Nc1ncc2c(n1)n(C1CCOCC1)c(=O)n2C [AZD7648] + C[C@@H]1COCCN1C2=NC(=NC(=C2)C3(CC3)[S@](=N)(=O)C)C4=C5C=CNC5=NC=C4 [AZD6738] (first compound max 10 µM, 7x7, partner max 10 µM)
A. -0.0019

###

# Tested on: HH (T-Cell Non-Hodgkin's Lymphoma)
# test.details: combination Emax (second highest fraction inhibited in the dose matrix, 72 h); higher = more inhibition; extreme values may be limits of the assay
test.readout: combination Emax

Q. For the compound O=C(c1cc(Cc2n[nH]c(=O)c3ccccc23)ccc1F)N1CCN(C(=O)C2CC2)CC1 [Olaparib] + COc1nnc2ccc(N3CCC(c4ccc(OCCN5CCN(C)C(=O)[C@H]5C)cc4)CC3)nn12 [AZD5153] (first compound max 10 µM, 7x7, partner max 1 µM) , what combination Emax is on record?
A. 0.382

Q. Now the compound CN(C)CCCOc1ccc(-c2ccc3ncc4c(c3c2)n(C2CCOCC2)c(=O)n4C)cn1 [AZD0156] + C=CCn1c(=O)c2cnc(Nc3ccc(N4CCN(C)CC4)cc3)nc2n1-c1cccc(C(C)(C)O)n1 [AZD1775] (first compound max 1 µM, partner max 1 µM)
A. 0.442

Q. Thanks! And Cc1c2c(nn1C)CSCc1cc(n(C)n1)CSc1cc(c3ccccc3c1)OCCCc1c(C(=O)O)n(C)c3c-2c(Cl)ccc13 [AZD5991] + CC1(C)CCC(CN2CCN(c3ccc(C(=O)NS(=O)(=O)c4ccc(NCC5CCOCC5)c([N+](=O)[O-])c4)c(Oc4cnc5[nH]ccc5c4)c3)CC2)=C(c2ccc(Cl)cc2)C1 [Venetoclax] (first compound max 1 µM, 7x7, partner max 1 µM) ?
A. 0.858

Q. Also, Cc1c2c(nn1C)CSCc1cc(n(C)n1)CSc1cc(c3ccccc3c1)OCCCc1c(C(=O)O)n(C)c3c-2c(Cl)ccc13 [AZD5991] + CS(=O)(=O)CCNCc1ccc(-c2ccc3ncnc(Nc4ccc(OCc5cccc(F)c5)c(Cl)c4)c3c2)o1 [Lapatinib] (first compound max 1 µM, 7x7, partner max 10 µM) please.
A. 0.868

Q. Try this compound next: N#Cc1cnc(Nc2cc(NC[C@H]3CNCCO3)c(C(F)(F)F)cn2)cn1 [SRA737] + Nc1ccn([C@@H]2O[C@H](CO)[C@@H](O)C2(F)F)c(=O)n1 [Gemcitabine] (first compound max 10 µM, 7x7, partner max 0.3 µM)
A. 0.634

Q. # repeat for COc1cccc(OCCCN)c1-c1cc(Nc2cnc(C#N)cn2)n[nH]1 [Prexasertib] + C=CCn1c(=O)c2cnc(Nc3ccc(N4CCN(C)CC4)cc3)nc2n1-c1cccc(C(C)(C)O)n1 [AZD1775] (first compound max 1 µM, partner max 1 µM)
A. 0.742
